- testDescription: Measurement of solubility of photoacid generators in photoresist solvents
- runConditions: solvent PGMEA
observationType: Solubility PGMEA

INSERT INTO assay_data (smilescode, endpointvalue) VALUES
  ('O=C1c2cccc3c(CCCC4CCCC4)ccc(c23)C(=O)N1OS(=O)(=O)C(F)(F)F', '6.3 w/v; %'),
  ('O=C1c2cccc3c(CC4CCCCC4)ccc(c23)C(=O)N1OS(=O)(=O)C(F)(F)F', '3.1 w/v; %'),
  ('CC(C)(C)c1cc2c3c(ccc(CC4CCCCC4)c3c1)C(=O)N(OS(=O)(=O)C(F)(F)F)C2=O', '11.0 w/v; %'),
  ('O=C1c2cccc3c(CC4CC4)ccc(c23)C(=O)N1OS(=O)(=O)C(F)(F)F', '9.2 w/v; %');

###

- testDescription: Thermal stability by thermogravimetric analyzer (5% weight loss temperature)
- Type: physicochemical
observationType: Temperature at which 5% weight loss occurred (°C)

INSERT INTO results (molecule, unitname, endpointvalue) VALUES
  ('O=C1c2cccc3c(CC4CC4)ccc(c23)C(=O)N1OS(=O)(=O)C(F)(F)F [Compound 1]', '°C', 242),
  ('O=C1c2cccc3c(CC4CCCCC4)ccc(c23)C(=O)N1OS(=O)(=O)C(F)(F)F [Compound 5]', '°C', 252),
  ('CC(C)(C)c1cc2c3c(ccc(CC4CCCCC4)c3c1)C(=O)N(OS(=O)(=O)C(F)(F)F)C2=O [Compound 19]', '°C', 236),
  ('O=C1c2cccc3cccc(c23)C(=O)N1OS(=O)(=O)C(F)(F)F [Formula V, reference compound]', '°C', 223),
  ('O=C1c2cccc3c(CCCC4CCCC4)ccc(c23)C(=O)N1OS(=O)(=O)C(F)(F)F [Compound 9]', '°C', 258);

###

Below: a set of entries, each annotated with reported Solubility Cyclohexane.
- testDescription: Measurement of solubility of photoacid generators in photoresist solvents
- runConditions: solvent cyclohexane
observationType: Solubility Cyclohexane

INSERT INTO measurements (smilescode, endpointvalue) VALUES
  ('O=C1c2cccc3c(CC4CC4)ccc(c23)C(=O)N1OS(=O)(=O)C(F)(F)F', '26.1 w/v; %'),
  ('CC(C)(C)c1cc2c3c(ccc(CC4CCCCC4)c3c1)C(=O)N(OS(=O)(=O)C(F)(F)F)C2=O', '31.2 w/v; %'),
  ('O=C1c2cccc3c(CCCC4CCCC4)ccc(c23)C(=O)N1OS(=O)(=O)C(F)(F)F', '21.3 w/v; %'),
  ('O=C1c2cccc3c(CC4CCCCC4)ccc(c23)C(=O)N1OS(=O)(=O)C(F)(F)F', '7.8 w/v; %');
